target.desc: huNav1.7α + β1-β2-β3 (human, UniProt Q15858 1-1988; A5A6L6 19-218; O60939 30-215; Q2KI11 23-215)
measurement.description: cell-based or functional assay
Hi! Could you tag entries with Qpatch IC50 below 3 nM as yes (1), and those at or above as no (0)? Much appreciated.

F010302375 (bispecific antibody, also called F0103275B05(E1D, N93R)-50GS-F0103478E09(L108Q)-FLAG3-HIS6) DVQLVESGGGLVQPGGSLRLSCAASGSIFNINSMAWYRRAPGKQRELVASSTNGGSTNYADSVKGRFTISRDNAKRVYLQMNSLTPEDTAVYYCRALLQPSIYDISRTYWGQGTLVTVSSGGGGSGGGGSGGGGSGGGGSGGGGSGGGGSGGGGSGGGGSGGGGSGGGGSEVQLVESGGGLVQAGGSLRLSCAASGRAFSTLAMGWFRQAPGKEREFVAAISRNGNNSATGDSLKGRFTISRDSTKSTVFLQMNTLKPEDTAVYYCAAISTPSASHPYVRKESYRYWGQGTQVTVSSGAADYKDHDGDYKDHDIDYKDDDDKGAAHHHHHH ... yes (1)
F010302379 (bispecific antibody, also called F0103275B05(E1D, N93R)-50GS-F0103500E03(P14A, L108Q)-FLAG3-HIS6) DVQLVESGGGLVQPGGSLRLSCAASGSIFNINSMAWYRRAPGKQRELVASSTNGGSTNYADSVKGRFTISRDNAKRVYLQMNSLTPEDTAVYYCRALLQPSIYDISRTYWGQGTLVTVSSGGGGSGGGGSGGGGSGGGGSGGGGSGGGGSGGGGSGGGGSGGGGSGGGGSEVQLVESGGGLVQAGGSLRLSCAASGRTFSRYQMGWFRQAPGKEREFVAYISWSGSTRYVDSVKGRFTISRDNAKNTVYLQMNSLKPEDTAVYHCAAGTAGIISSRPETYDSWGQGTQVTVSSGAADYKDHDGDYKDHDIDYKDDDDKGAAHHHHHH ... no (0)
F010302378 (bispecific antibody, also called F0103275B05(E1D, N93R)-50GS-F0103495F09-FLAG3-HIS6) DVQLVESGGGLVQPGGSLRLSCAASGSIFNINSMAWYRRAPGKQRELVASSTNGGSTNYADSVKGRFTISRDNAKRVYLQMNSLTPEDTAVYYCRALLQPSIYDISRTYWGQGTLVTVSSGGGGSGGGGSGGGGSGGGGSGGGGSGGGGSGGGGSGGGGSGGGGSGGGGSEVQLVESGGGLVQAGSSLSLSCAASGRALSTYAMGWFRQAPGKEREFVARISRSGITTYYTDSVKGRFTISRDRAKDTVYLQMNSLKPEDTAIYLCAADASTNPAGYYLRNRYDYWGQGTLVTVSSGAADYKDHDGDYKDHDIDYKDDDDKGAAHHHHHH ... yes (1)
F010302377 (bispecific antibody, also called F0103275B05(E1D, N93R)-50GS-F0103492E09-FLAG3-HIS6) DVQLVESGGGLVQPGGSLRLSCAASGSIFNINSMAWYRRAPGKQRELVASSTNGGSTNYADSVKGRFTISRDNAKRVYLQMNSLTPEDTAVYYCRALLQPSIYDISRTYWGQGTLVTVSSGGGGSGGGGSGGGGSGGGGSGGGGSGGGGSGGGGSGGGGSGGGGSGGGGSEVQLVESGGGLVQAGGSLRLSCAASKSILSFAYMRWYRQAPGKQREFVASIAIGGATSYTDSVKGRFTISRDNAKNTVYLQMNSLKPEDTAVYYCSAPAGQYRGQGTLVTVSSGAADYKDHDGDYKDHDIDYKDDDDKGAAHHHHHH ... yes (1)

Please look at the following binder next.
Task: hey, is Qpatch IC50 for F010300468 (VHH, also called F0103275B05(N93R) + FLAG3-HIS6; F103275B05(N93R) + FLAG3-HIS6) VHH: EVQLVESGGGLVQPGGSLRLSCAASGSIFNINSMAWYRRAPGKQRELVASSTNGGSTNYADSVKGRFTISRDNAKRVYLQMNSLTPEDTAVYYCRALLQPSIYDISRTYWGQGTLVTVSS lower than 3 nM or not?
Result: no (0)
